// provenance: ChEMBL document CHEMBL4196030

System: BEAS-2B
Assay: Antiproliferative activity against human BEAS2B cells after 70 hrs by alamar blue assay
Assay type: cell-based
IC50 values, listed per item
PARAMETER: IC50 (µM)

                                   compound  obs_value
0  COc1cccc2c1C(=O)c1c(O)c3c(c(O)c1C2=O)C[C@@](O)(C(=O)CO)C[C@@H]3O[C@H]1C[C@H](N)[C@H](O)[C@H](C)O1        2.4
1  COc1ccc(NS(=O)(=O)c2c(F)c(F)c(F)c(F)c2F)cc1F       12.2
2  [O-][S+](CC#Cc1cccnc1C#CCO)c1c(F)c(F)c(F)c(F)c1F (centres undefined)          1
3  [O-][S+](CC#Cc1ccccc1C#CCO)c1ccccc1 (centres undefined)       29.5
